# Chamelogk per entry
Assay: Chamelogk, chromatographic chameleonicity descriptor (PLRP-S RP-HPLC)
Format: physicochemical
Settings: Exp. minus Ext. log k' PLRP-S at 100% MeCN; linear fit at 50, 60, 70% MeCN; 20 mM ammonium acetate pH 7.0; 30 °C
Keep it simple and answer with nothing but the number.

Worked cases, Chamelogk given:
1) Cc1ncsc1-c1ccc(CNC(=O)[C@@H]2C[C@@H](O)CN2C(=O)[C@@H](NC(=O)CCCCOCCCCCOCCCCCCNc2cccc3c2C(=O)N(C2CCC(=O)NC2=O)C3=O)C(C)(C)C)cc1 (stereo partly shown); 1.05
2) COC(=O)C[C@@H]1N=C(c2ccc(Cl)cc2)c2c(sc(C(=O)NCCCCCNc3cccc4c3C(=O)N(C3CCC(=O)NC3=O)C4=O)c2C)-n2c(C)nnc21 (stereo partly shown); 0.65
3) CO[C@H]1C[C@@H]2CC[C@@H](C)[C@@](O)(O2)C(=O)C(=O)N2CCCC[C@H]2C(=O)O[C@H]([C@H](C)C[C@@H]2CC[C@@H](OC(=O)C(C)(CO)CO)[C@H](OC)C2)CC(=O)[C@H](C)/C=C(\C)[C@@H](O)[C@@H](OC)C(=O)[C@H](C)C[C@H](C)/C=C/C=C/C=C/1C; 0.23

Next compound, please.
Name the recorded Chamelogk for Cc1sc2c(c1C)C(c1ccc(Cl)cc1)=N[C@@H](CC(=O)Nc1ccc(OCCOCCOCCOCCNc3cccc4c3C(=O)N(C3CCC(=O)NC3=O)C4=O)cc1)c1nnc(C)n1-2 (stereo partly shown) .
0.72

###

In this section, each of the compounds is paired with its reported Chamelogk.
Test: Chamelogk, chromatographic chameleonicity descriptor (PLRP-S RP-HPLC)
Type: physicochemical
Conditions: Exp. minus Ext. log k' PLRP-S at 100% MeCN; linear fit at 50, 60, 70% MeCN; 20 mM ammonium acetate pH 7.0; 30 °C
The response must contain the number and no unit.

1) CO[C@H]1C[C@@H]2CC[C@@H](C)[C@@](O)(O2)C(=O)C(=O)N2CCCC[C@H]2C(=O)O[C@H]([C@H](C)C[C@@H]2CC[C@@H](OCCO)[C@H](OC)C2)CC(=O)[C@H](C)/C=C(\C)[C@@H](O)[C@@H](OC)C(=O)[C@H](C)C[C@H](C)/C=C/C=C/C=C/1C; 0.45

Give its Chamelogk value. Item: O=C1CCC(N2C(=O)c3cccc(F)c3C2=O)C(=O)N1 (stereo not drawn) [4-F-thalidomide]
0.23

###

Assay: log kW^IAM and Δ log kW^IAM (IAM chromatography)
Format: physicochemical
Conditions: IAM column, extrapolated to 100% buffer from 10 to 50% MeCN, pH 7.0
metric: log kW^IAM
Keep the answer to the number alone.

1. CO[C@H]1C[C@@H]2CC[C@@H](C)[C@@](O)(O2)C(=O)C(=O)N2CCCC[C@H]2C(=O)O[C@H]([C@H](C)C[C@@H]2CC[C@@H](O)[C@H](OC)C2)CC(=O)[C@H](C)/C=C(\C)[C@@H](O)[C@@H](OC)C(=O)[C@H](C)C[C@H](C)/C=C/C=C/C=C/1C; 3.96

From here, focus on the item given below.
Form field: reported log kW^IAM of Cc1sc2c(c1C)C(c1ccc(Cl)cc1)=N[C@@H](CC(=O)Nc1ccc(OCCOCCOCCOCCNc3cccc4c3C(=O)N(C3CCC(=O)NC3=O)C4=O)cc1)c1nnc(C)n1-2 (some centres unmarked)
3.49
